// compounds with reported pIC50 on Acyl-CoA: Cholesterol Acyltransferase (ACAT) (Rattus norvegicus), multi-publication
Note on units: pIC50 is unitless, being -log10 of a concentration expressed in mol/L.

Prompt line: What is its pIC50 for Acyl-CoA: Cholesterol Acyltransferase (ACAT) (Rattus norvegicus)? Entry: CCCCCCCN(CCCCCS(=O)(=O)c1nc(-c2ccccc2)c(-c2ccccc2)[nH]1)C(=O)Nc1ccc(F)cc1F
Response line: 7.80

Prompt line: What is its pIC50 for Acyl-CoA: Cholesterol Acyltransferase (ACAT) (Rattus norvegicus)? Entry: Cc1ccccc1-c1c(NC(=O)Nc2c(C)cccc2C(C)C)c(=O)n(C)c2ccc(Cl)cc12
Response line: 7.77

Prompt line: What is its pIC50 for Acyl-CoA: Cholesterol Acyltransferase (ACAT) (Rattus norvegicus)? Entry: CCN(CC)c1nc(C)nc(SC)c1NC(=O)CCCN1CCCc2ccccc21
Response line: 6.72

Prompt line: What is its pIC50 for Acyl-CoA: Cholesterol Acyltransferase (ACAT) (Rattus norvegicus)? Entry: CCCCCCCCCCCCn1nnc(C(C(=O)Nc2c(C(C)C)cc(C(C)C)cc2C(C)C)N2CCCC2)n1 (racemic)
Response line: 6.65

Prompt line: What is its pIC50 for Acyl-CoA: Cholesterol Acyltransferase (ACAT) (Rattus norvegicus)? Entry: CCCCCCCN(CCCCCCc1nc(-c2ccccc2)c(-c2ccccc2)[nH]1)C(=O)Nc1ccc(F)cc1F
Response line: 6.55

Prompt line: What is its pIC50 for Acyl-CoA: Cholesterol Acyltransferase (ACAT) (Rattus norvegicus)? Entry: CCCCCCCC/C=C\CCCCCCCC(=O)NCCOC(=O)CCNC(=O)C1OC(C)(C)OCC1(C)C (stereo not shown)
Response line: 6.16

Prompt line: What is its pIC50 for Acyl-CoA: Cholesterol Acyltransferase (ACAT) (Rattus norvegicus)? Entry: CCCCCCCCCCCCn1nnc(C(=O)C(=O)Nc2c(C(C)C)cccc2C(C)C)n1
Response line: 6.87

Prompt line: What is its pIC50 for Acyl-CoA: Cholesterol Acyltransferase (ACAT) (Rattus norvegicus)? Entry: CCCCCCSc1nc(C)nc(N(CCC)c2ccccc2)c1NC(=O)CCCN(CCC)c1ccccc1
Response line: 6.66

###

// compounds with reported IC50 on Acyl-CoA: Cholesterol Acyltransferase (ACAT) (Rattus norvegicus, UniProt Q7TQM4), multi-publication
Sequence (Q7TQM4 whole entry): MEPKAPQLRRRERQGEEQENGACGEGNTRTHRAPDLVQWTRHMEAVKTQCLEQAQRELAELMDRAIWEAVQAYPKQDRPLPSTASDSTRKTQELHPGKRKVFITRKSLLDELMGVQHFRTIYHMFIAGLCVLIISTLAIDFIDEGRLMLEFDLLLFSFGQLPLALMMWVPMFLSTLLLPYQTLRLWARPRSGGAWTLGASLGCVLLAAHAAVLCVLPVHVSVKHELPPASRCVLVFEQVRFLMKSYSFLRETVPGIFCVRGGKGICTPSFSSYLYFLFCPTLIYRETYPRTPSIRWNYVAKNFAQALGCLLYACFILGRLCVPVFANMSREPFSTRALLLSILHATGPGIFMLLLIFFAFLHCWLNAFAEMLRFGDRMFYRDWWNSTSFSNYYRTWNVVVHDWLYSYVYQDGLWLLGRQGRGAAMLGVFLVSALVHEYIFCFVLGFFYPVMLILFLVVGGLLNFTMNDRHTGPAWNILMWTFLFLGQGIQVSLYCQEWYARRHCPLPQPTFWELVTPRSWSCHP

Prompt line: What is its IC50 for Acyl-CoA: Cholesterol Acyltransferase (ACAT) (Rattus norvegicus, UniProt Q7TQM4)? Entry: CCCCCCN(CCCC(=O)Nc1c(S)nc(C)nc1N(CCC)CCC)c1ccccc1
Response line: 38 nM

Prompt line: What is its IC50 for Acyl-CoA: Cholesterol Acyltransferase (ACAT) (Rattus norvegicus, UniProt Q7TQM4)? Entry: CCCCCCCN(CCCCCSc1nc(-c2ccccc2)c(-c2ccccc2)[nH]1)C(=O)Cc1ccc(-c2ccccc2)cc1
Response line: 160 nM

Prompt line: What is its IC50 for Acyl-CoA: Cholesterol Acyltransferase (ACAT) (Rattus norvegicus, UniProt Q7TQM4)? Entry: CCCCCCN(CCCCC(=O)Nc1c(SC)nc(C)nc1N(CC)CC)c1ccccc1
Response line: 33 nM

Prompt line: What is its IC50 for Acyl-CoA: Cholesterol Acyltransferase (ACAT) (Rattus norvegicus, UniProt Q7TQM4)? Entry: CCCCCCSC1CC(=O)CC(C(=O)Nc2c(SC)cc(C)nc2SC)S1 (stereo not drawn)
Response line: < 2000 nM

Prompt line: What is its IC50 for Acyl-CoA: Cholesterol Acyltransferase (ACAT) (Rattus norvegicus, UniProt Q7TQM4)? Entry: CCCCCCSC(C(=O)Nc1c(SC)cc(C)nc1SC)c1ccc(C(C)C)cc1 (stereo not drawn)
Response line: < 1000 nM

Prompt line: What is its IC50 for Acyl-CoA: Cholesterol Acyltransferase (ACAT) (Rattus norvegicus, UniProt Q7TQM4)? Entry: CCCN(CCCC(=O)Nc1c(S)nc(C)nc1N(CC)CC)c1ccc(F)cc1F
Response line: 200 nM

Prompt line: What is its IC50 for Acyl-CoA: Cholesterol Acyltransferase (ACAT) (Rattus norvegicus, UniProt Q7TQM4)? Entry: CCN(CC)c1nc(C)nc(S)c1NC(=O)CCCN1CCCc2ccccc21
Response line: 280 nM

Prompt line: What is its IC50 for Acyl-CoA: Cholesterol Acyltransferase (ACAT) (Rattus norvegicus, UniProt Q7TQM4)? Entry: CCCCCCSC(C(=O)Nc1c(SC)cc(C)nc1SC)c1ccc(C(C)(C)C)cc1 (stereo not drawn)
Response line: < 1000 nM

Prompt line: What is its IC50 for Acyl-CoA: Cholesterol Acyltransferase (ACAT) (Rattus norvegicus, UniProt Q7TQM4)? Entry: CC(C)NC(=O)N(CCCCCSc1nc(-c2ccccc2)c(-c2ccccc2)[nH]1)c1ccc(F)cc1F
Response line: 40 nM

###

// compounds with reported IC50 on Acyl-CoA: Cholesterol Acyltransferase (ACAT) (Rattus norvegicus), multi-publication
Express it in nM; write the number only.

Prompt line: What is its IC50 for Acyl-CoA: Cholesterol Acyltransferase (ACAT) (Rattus norvegicus)? Entry: CCCN(CCCC(=O)Nc1c(C(C)C)nc(C)nc1N(CC)CC)c1ccccc1
Response line: 170

Prompt line: What is its IC50 for Acyl-CoA: Cholesterol Acyltransferase (ACAT) (Rattus norvegicus)? Entry: CCCCN(CCCC)c1ncnc(OCC)c1NC(=O)CCCCN(CCC)c1ccccc1
Response line: 8.8

Prompt line: What is its IC50 for Acyl-CoA: Cholesterol Acyltransferase (ACAT) (Rattus norvegicus)? Entry: CC(C)c1cc(C(C)C)c(CC(=O)NS(=O)(=O)Oc2c(C(C)C)cc(CO)cc2C(C)C)c(C(C)C)c1
Response line: 38500

Prompt line: What is its IC50 for Acyl-CoA: Cholesterol Acyltransferase (ACAT) (Rattus norvegicus)? Entry: CCCCCCCN(CCCCCSc1nc(-c2ccccc2)c(-c2ccccc2)[nH]1)C(=O)CC1CCCCC1
Response line: 30

Prompt line: What is its IC50 for Acyl-CoA: Cholesterol Acyltransferase (ACAT) (Rattus norvegicus)? Entry: CCCCCC/C=C\CCCCCCCC(=O)NC(CN1CCN(C)CC1)c1ccccc1 (centres unmarked)
Response line: 160

Prompt line: What is its IC50 for Acyl-CoA: Cholesterol Acyltransferase (ACAT) (Rattus norvegicus)? Entry: CCCN(CCCC(=O)Nc1c(SC)nc(C)nc1N(CC)CC)Cc1ccccc1
Response line: 220

Prompt line: What is its IC50 for Acyl-CoA: Cholesterol Acyltransferase (ACAT) (Rattus norvegicus)? Entry: CCCCCCCC/C=C\CCCCCCCC(=O)NC(CC1CCCCC1)c1ccccc1 (centres unmarked)
Response line: 180

Prompt line: What is its IC50 for Acyl-CoA: Cholesterol Acyltransferase (ACAT) (Rattus norvegicus)? Entry: CCCCCCCN(CCCCCNc1nc(-c2ccccc2)c(-c2ccccc2)[nH]1)C(=O)Nc1ccc(F)cc1F
Response line: 3500

Prompt line: What is its IC50 for Acyl-CoA: Cholesterol Acyltransferase (ACAT) (Rattus norvegicus)? Entry: CCCN(CCC(=O)Nc1c(SC)nc(C)nc1N(CC)CC)c1ccccc1
Response line: 120

Prompt line: What is its IC50 for Acyl-CoA: Cholesterol Acyltransferase (ACAT) (Rattus norvegicus)? Entry: CCCCCCCC/C=C\CCCCCCCC(=O)N[C@H]1CCCC[C@@H]1NC(=O)CCNC(=O)[C@H](OC(C)=O)C(C)(C)COC(C)=O
Response line: 198

Prompt line: What is its IC50 for Acyl-CoA: Cholesterol Acyltransferase (ACAT) (Rattus norvegicus)? Entry: CCCN(CCCC(=O)Nc1c(S)nc(C)nc1N(CC)CC)c1ccccc1
Response line: 80

Prompt line: What is its IC50 for Acyl-CoA: Cholesterol Acyltransferase (ACAT) (Rattus norvegicus)? Entry: CCCCCCCC/C=C\CCCCCCCC(=O)N[C@H]1CCCC[C@@H]1NC(=O)CCNC(=O)C1OC(C)(C)OCC1(C)C (some centres unmarked)
Response line: 162

###

// molecules with reported IC50 on Acyl-CoA: Cholesterol Acyltransferase (ACAT) (Rattus norvegicus), multi-publication
Kindly note that classification relies on IC50 with these boundaries: lower bin (below 50 nM), middle bin (50 nM to below 200 nM), upper bin (200 nM or more)

Prompt line: Band of CCCCCCCCCCCCn1nnc(C(N)C(=O)Nc2c(C(C)C)cccc2C(C)C)n1 (racemic) ?
Response line: middle bin

Prompt line: Band of CCCCNC(=O)Nc1c(OCCCn2cnc(-c3ccccc3)c2CC)ccc(O)c1C ?
Response line: middle bin

Prompt line: Band of CCCCCCCN(CCCCC[S+]([O-])c1nc(-c2ccccc2)c(-c2ccccc2)[nH]1)C(=O)Nc1ccc(F)cc1F (centres unmarked) ?
Response line: lower bin

Prompt line: Band of CCCCCCCN(CCCCCSc1nc(-c2ccccc2)c(-c2ccccc2)[nH]1)C(=O)NCCC ?
Response line: lower bin

Prompt line: Band of CCCN(CC(=O)Nc1c(SC)nc(C)nc1N(CC)CC)Cc1ccccc1 ?
Response line: upper bin

Prompt line: Band of O=C(CCCCCCCCCCOc1ccccc1)NC(CN1CCCCC1)c1ccccc1 (centres unmarked) ?
Response line: upper bin

Prompt line: Band of CCCSc1nc(C)nc(N(CCC)c2ccccc2)c1NC(=O)CCCN(CCC)c1ccccc1 ?
Response line: middle bin

Prompt line: Band of CCCCCCCC/C=C\CCCCCCCC(=O)NC(CN1CCC(O)CC1)c1ccccc1 (centres unmarked) ?
Response line: upper bin

Prompt line: Band of CCCCCCCCCCCCn1nnc(C(=NNc2ccccc2)C(=O)Nc2c(C(C)C)cccc2C(C)C)n1 ?
Response line: middle bin

Prompt line: Band of Cc1cc(C)c2c(c1)c(-c1ccccc1Cl)c(NC(=O)Nc1c(C)cccc1C(C)C)c(=O)n2C ?
Response line: lower bin
